assay.method.text: M. tuberculosis H37Rv growth inhibitors, H37Rv strain (AID 1626);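 further: bacteria incubated seven days before Alamar blue readout; 0% = bacteria only wells and 100% = bacteria with antibiotic wells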
study.conditions: active compounds read high, concentration not given here
The whole screen tested about 220,000 compounds, of which about 2,000 (0.91%) were called active. Not shown: some 2% with an inconclusive outcome. These entries were drawn from the full list. Potency and affinity values are given separately.
value.kind: inhibition (%)
# value in %; strip the unit string

Below, 6 compounds whose answers are already recorded.
COc1ccc(/C=N/NC(=O)C(C)n2nnc3ccccc32)cc1OC (configuration not stated)    -3.28
CCOc1ccc(N/C(C)=C/C(=O)c2ccc3c(c2)OCCO3)cc1    77.8
Cc1ccc(-c2csc(/C(C#N)=C/Nc3ccc4c(c3)OCCO4)n2)cc1    -3.12
Cc1cccc(NC(=O)c2nc[nH]c2C(=O)N[C@@H](C)C(=O)OC(C)(C)C)c1    80
CCn1c(CNc2ccc(OC)cc2)nnc1SCC(=O)Nc1ccc(F)cc1    -10.9
COC(=O)c1ccc(N/C=C\C(=O)c2ccc3c(c2)OCO3)cc1    17.8

Now take the following compound into account.
Prompt line: # get_value(readout='inhibition', item= CCN(CC)CCOC(=O)c1cccc(OC)c1 )
Response line: -3.6

* * *

The molecules listed here are annotated with their inhibition.
assay.method.text: M. tuberculosis H37Rv growth inhibitors, H37Rv strain (AID 1626);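 further: bacteria incubated seven days before Alamar blue readout; 0% = bacteria only wells and 100% = bacteria with antibiotic wells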
study.conditions: active compounds read high, concentration not given here
The whole screen tested about 220,000 compounds, of which about 2,000 (0.91%) were called active. Roughly 2% stayed inconclusive and do not appear here. These entries were drawn from the full list. Measured potencies and affinities stand elsewhere.
Please respond with the number in % and leave the unit unwritten.

O=C(Cc1nnc(NC(=O)Nc2ccc(Cl)cc2)s1)NCc1ccccc1    -0.51
CCOC(=O)c1sc(C)c2c1NC1(CCCCC1)NC2=O    2.89
Cc1nn(C)cc1CN1CCC(CO)(CCOc2ccccc2)CC1    -0.32

Prompt line: # get_value(readout='inhibition', item= Cc1nc(N2CCN(c3ccccn3)CC2)c2c(C)c(C(=O)Nc3ccc(F)cc3F)sc2n1 )
Response line: 79.3

Prompt line: Entry Cc1ccc(NC(=S)N(Cc2ccccc2)C(C)C)cc1 has what inhibition?
Response line: -1.3

Prompt line: // lookup inhibition for O=C(NNC(=O)c1cccnc1)Nc1ccc(Cl)c(Cl)c1
Response line: -1.69

Prompt line: Any idea what inhibition was measured for C/C=C/c1ccc(OCC(=O)OCC)c(OC)c1 ?
Response line: 78.2

Prompt line: Which measured inhibition value corresponds to Cc1nc(N2CCOCC2)c2c(C)c(C(=O)Nc3ccccc3Cl)sc2n1 ?
Response line: 0.57

Prompt line: Look up inhibition: CCn1ccnc1CN(C)Cc1cn(C)nc1-c1ccccc1F
Response line: -1.63

Prompt line: # query: inhibition of entry c1ccc(-c2ncc3c(ccc4ccccc43)n2)cc1
Response line: 4.61

Prompt line: May I ask what inhibition has been recorded for O=[N+]([O-])c1ccc(NCCCO)c(S(=O)(=O)N2CCOCC2)c1 ?
Response line: -3.72

Prompt line: Return reported inhibition; argument: CCOC(=O)C1(CCc2ccccc2)CCN(Cc2ccc(O)cc2)CC1
Response line: 1.73

Prompt line: Reported inhibition, molecule CCN(CC)c1ccc(/C=N/OCC(=O)N2CCCc3ccccc32)cc1 : ____
Response line: 1.23

Prompt line: Consider the molecule O=C(/C=C/c1ccccc1)NC1CC2CCC1C2 (stereo not drawn) and give its measured inhibition.
Response line: 0.01

Prompt line: // query inhibition value for entry O=C(NCC1CCCO1)c1cc(C(=O)c2ccc(Cl)cc2Cl)c[nH]1 (stereo not drawn)
Response line: 2.36

Prompt line: Look up inhibition for this molecule: Clc1ccc(-c2cc(-c3nnc4n3CCCCC4)c3ccccc3n2)cc1
Response line: 71.9

Prompt line: Given the entry CC(=O)Nc1ccc(NC(=O)CCCCCN2C(=O)c3ccccc3C2=O)cc1 , report its measured inhibition.
Response line: 1.79

Prompt line: Please look up its inhibition: Cc1ccc(-c2nc(C(F)(F)F)cc(=O)[nH]2)cc1
Response line: -0.92
